- assayDetails: Transcellular transport
- conditionParameters: human, Efflux ratio, Papp,correct (AP-to-BL)/Papp,correct (BL-to-AP)
quantityName: Efflux ratio

get_value(item= CCCc1nc2c(C)cc(-c3nc4ccccc4n3C)cc2n1Cc1ccc(-c2ccccc2C(=O)O)cc1 , readout=Efflux ratio) returns < 1

* * *

- assayDetails: Transcellular transport
- conditionParameters: human
Recorded Papp B→A at 2 h for the following molecules
Express your answer in ×10⁻⁶ cm/s, writing the number without its unit.

Known Papp B→A at 2 h results, listed for orientation:
CCCc1nc2c(C)cc(-c3nc4ccccc4n3C)cc2n1Cc1ccc(-c2ccccc2C(=O)O)cc1 [Telmisartan]: 13.8
NCC1(CC(=O)O)CCCCC1 [Gabapentin]: 3
O=C1CN(/N=C/c2ccc(-c3ccc([N+](=O)[O-])cc3)o2)C(O)=N1 [Dantrolene, Dantrolene sodium]: 14.8

Kindly consider the entry below.
The reported Papp B→A at 2 h of the molecule COCCn1c2c([n+](Cc3cnccn3)c1C)C(=O)c1ccccc1C2=O [YM155] was 4.59
